# Tested on: MOLM14
# procedure_text: cell viability relative to vehicle control; higher = less cytotoxic;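 further: after 48 h exposure read by CellTiter-Glo luminescence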
# condition_context: 10 µM; SRSF2 genotype: SRSF2 P95H/wt
Where a name gives a salt, the structure may show the parent alone.
reported_endpoint: cell viability
Dear colleague, please send the value followed by its unit.

COC(=O)c1ccc2c(c1)nc(NC(=O)c1ccccc1)n2CCCc1ccccc1 = 87.9%

Please report the measured cell viability for N=C(N)NC(=N)N1CCOCC1 [Moroxydine HCl] tested on MOLM14.
95.8%

Answer briefly: cell viability recorded on MOLM14 for CC(=O)NC(Cc1ccc(O)cc1)C(=O)NC(CCCN=C(N)N)C(=O)NC(Cc1ccccc1)C(N)=O (stereo not drawn)
87.3%

Fill in cell viability for CC(C)(C)NC(=O)N[C@H](C(=O)N1C[C@H]2[C@@H]([C@H]1C(=O)NC(CC1CCC1)C(=O)C(N)=O)C2(C)C)C(C)(C)C (stereo partly drawn) tested with MOLM14.
91.1%

---

# System: K562
# procedure_text: cell viability relative to vehicle control; higher = less cytotoxic
# condition_context: 10 µM; SRSF2 genotype: SRSF2 wt/wt
Structures can show the parent of a compound that is named as a salt.
Label criterion met when cell viability is strictly below 90%; at or above that, label criterion not met.

Example entries and their recorded answers appear below.
CC(=O)c1cc(O)ccc1O [2',5'-Dihydroxyacetophenone] = criterion not met
CN1C(=O)[C@@H](NC(=O)c2n[nH]c(Cc3ccccc3)n2)COc2ccccc21 = criterion not met
C[C@@H]1CCO[C@H]2Cn3cc(C(=O)NCc4ccc(F)cc4F)c(=O)c(O)c3C(=O)N12 = criterion met
O=c1cc(N2CCOCC2)oc2c1ccc1ccccc12 = criterion not met
Cc1ccc(S(=O)(=O)C=CC#N)cc1 = criterion met
CN(C)Cc1cccc(N=C(c2ccccc2)c2c(O)[nH]c3cc(C(N)=O)ccc23)c1 = criterion met
CCCCCC1=C(C)CCC1=O [Dihydrojasmone] = criterion not met
O=C(CCc1ccc(O)cc1)c1c(O)cc(O[C@@H]2O[C@H](CO)[C@@H](O)[C@H](O)[C@H]2O)cc1O = criterion not met
COC(=O)C1=C(C)NC(C)=C(C(=O)OCCN(C)Cc2ccccc2)C1c1cccc([N+](=O)[O-])c1 (stereo not given) [Nicardipine HCl] = criterion met
C=C1[C@@H]2CC[C@@H](C2)C1(C)C = criterion not met

Field: below-cutoff. Rule: recorded cell viability strictly less than 90%. Subject: CC12CC3CC(C)(C1)CC(N)(C3)C2 [Memantine hydrochloride (Namenda)]
criterion not met

In plain terms, does "CN1CCC(NC(=O)c2cc(-c3c(O)cc(O)cc3Oc3ccc([N+](=O)[O-])cc3)on2)CC1" come in under 90% for cell viability?
criterion met

Does the reported cell viability of O=c1[nH]ccc2c(S(=O)(=O)N3CCCNCC3)cccc12 [Hydroxyfasudil (HA-1100)HCl] stay below 90%?
criterion not met

Does the reported cell viability of the following molecule sit strictly below 90%? "Cc1c(Cl)cccc1Nc1ccccc1C(=O)O"
criterion not met

Quick check: cell viability of "Nc1nc(=O)[nH]cc1F" under 90%?
criterion not met

Is the reported cell viability for "C=C1C(=O)[C@]23[C@H](O)[C@H]1CC[C@H]2[C@@]12CO[C@]3(O)[C@@H](O)[C@@H]1C(C)(C)CC[C@@H]2O" strictly below 90%?
criterion met
